From: PubChem BioAssay AID651650

system: Neuropilin-1 (Homo sapiens)
measurement_description: NRP-1 b1b2 CendR peptide binding inhibitors, dose response, biochemical, FP and AlphaScreen panel (AID 651650)
condition_notes: NRP-1 b1b2 / RPARPAR peptide binding, FP or AlphaScreen; AlphaScreen, run 1; individual panel run IC50
value_type: IC50

INSERT INTO assay_data (compound, system, recorded_result) VALUES
  ('O=C(CSc1nc2ccccc2c(=O)n1-c1ccc(F)cc1F)Nc1ccc2c(c1)CCC2', 'Neuropilin-1 (Homo sapiens)', '> 100 µM'),
  ('NC(=O)CC[C@H](NC(=O)c1ccc(F)cc1)C(=O)N1CCN(Cc2ccc3c(c2)OCO3)CC1', 'Neuropilin-1 (Homo sapiens)', '> 100 µM'),
  ('CC(C)(C)OC(=O)N1CCC(NC(=O)c2nc[nH]c2C(=O)N2CCc3ccccc3C2)CC1', 'Neuropilin-1 (Homo sapiens)', '> 100 µM'),
  ('COc1ccc(/C=N/NC(=O)c2cc(C(C)(C)C)[nH]n2)cc1COc1ccc(F)cc1F', 'Neuropilin-1 (Homo sapiens)', '> 100 µM'),
  ('CCOC(=O)N1CCN(C(=O)c2cc(COc3ccc(OC)cc3Cl)on2)CC1', 'Neuropilin-1 (Homo sapiens)', '> 100 µM'),
  ('CC(=O)Nc1cc(F)c2c(c1F)Cc1cc(F)ccc1-2', 'Neuropilin-1 (Homo sapiens)', '89.2 µM'),
  ('COC(=O)Cc1ccc(NC(=S)NCCCO)cc1', 'Neuropilin-1 (Homo sapiens)', '> 100 µM'),
  ('CNC(=O)NC(=O)C(C)OC(=O)c1c(C)noc1C (configuration not stated)', 'Neuropilin-1 (Homo sapiens)', '82 µM'),
  ('COc1ccc(/C=N/NC(=O)c2ccccc2Cl)cc1CSc1nc2ccccc2s1', 'Neuropilin-1 (Homo sapiens)', '> 100 µM'),
  ('CCN(C[C@H]1N[C@@](CC)(C(=O)OC)[C@H]2C(=O)N(C)C(=O)[C@@H]12)S(=O)(=O)c1ccc(OC)cc1', 'Neuropilin-1 (Homo sapiens)', '> 100 µM'),
  ('CCN(CC(=O)NCc1cccs1)S(=O)(=O)c1ccc(C(C)C)cc1', 'Neuropilin-1 (Homo sapiens)', '> 100 µM'),
  ('Cc1cccc(N(CC(=O)NC2CCCC2)C(=O)CS(=O)CC(=O)Nc2ccc3c(c2)OCO3)c1C (configuration not stated)', 'Neuropilin-1 (Homo sapiens)', '> 100 µM');

###

system: Neuropilin-1 (Homo sapiens) (UniProt O14786)
Sequence (O14786 whole entry, looked up): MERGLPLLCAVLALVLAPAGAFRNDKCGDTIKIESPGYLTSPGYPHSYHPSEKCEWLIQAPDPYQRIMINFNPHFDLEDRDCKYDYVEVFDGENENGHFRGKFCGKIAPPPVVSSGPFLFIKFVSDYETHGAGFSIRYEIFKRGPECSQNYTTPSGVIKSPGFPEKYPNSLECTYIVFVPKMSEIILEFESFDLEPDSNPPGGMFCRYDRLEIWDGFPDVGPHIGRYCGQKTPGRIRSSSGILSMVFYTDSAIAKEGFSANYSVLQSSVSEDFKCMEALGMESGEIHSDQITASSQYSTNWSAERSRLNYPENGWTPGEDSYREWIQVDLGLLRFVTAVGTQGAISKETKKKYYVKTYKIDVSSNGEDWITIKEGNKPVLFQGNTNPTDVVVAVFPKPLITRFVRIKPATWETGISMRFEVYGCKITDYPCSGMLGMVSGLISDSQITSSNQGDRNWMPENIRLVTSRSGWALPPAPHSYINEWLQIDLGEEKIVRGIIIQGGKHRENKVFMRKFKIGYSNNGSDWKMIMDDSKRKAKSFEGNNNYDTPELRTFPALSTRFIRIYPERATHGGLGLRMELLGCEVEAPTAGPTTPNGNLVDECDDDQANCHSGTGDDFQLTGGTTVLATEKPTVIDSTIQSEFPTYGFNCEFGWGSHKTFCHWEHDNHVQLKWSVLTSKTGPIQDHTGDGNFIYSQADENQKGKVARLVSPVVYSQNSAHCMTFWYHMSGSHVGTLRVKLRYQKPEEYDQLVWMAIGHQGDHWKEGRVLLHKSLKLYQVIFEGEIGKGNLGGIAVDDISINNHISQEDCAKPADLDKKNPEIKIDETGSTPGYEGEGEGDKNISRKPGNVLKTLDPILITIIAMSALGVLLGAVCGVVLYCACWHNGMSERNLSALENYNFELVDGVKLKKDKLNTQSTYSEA
measurement_description: NRP-1 b1b2 CendR peptide binding inhibitors, dose response, biochemical, FP and AlphaScreen panel (AID 651650)
condition_notes: NRP-1 b1b2 / RPARPAR peptide binding, FP or AlphaScreen; AlphaScreen, mean of runs
Activity calls are given as the source filed them.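 The calls were made as follows: active = mean IC50 below 20 µM in each of the two panels, so potent in both; inactive = the rest.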
Classes used: yes (1) for active, no (0) for inactive

INSERT INTO measurements (compound, group_label) VALUES
  ('CN(C)CCn1c(=O)n(-c2ccc(F)cc2)c(=O)c2c3c(sc21)CCCCC3', 'no (0)'),
  ('CCCCC1CCC(C(=O)NC2CCS(=O)(=O)C2)CC1 (stereo not given)', 'no (0)'),
  ('COc1ccc(Cl)cc1NC(=O)C(C)N1CCc2ccccc21 (stereo not given)', 'no (0)'),
  ('Cc1ccc(OCC(=O)Nc2ccc(C)c(S(=O)(=O)N3CCCCCC3)c2)c([N+](=O)[O-])n1', 'no (0)'),
  ('CSCCC(NC(=O)c1ccc(Cl)cc1Cl)C(=O)NCC(c1cccs1)N(C)C (stereo not given)', 'no (0)'),
  ('c1ccc(OCCCN2CCCC2)cc1', 'no (0)'),
  ('COc1cc(OC)nc(NC(=O)COC(=O)c2cccc(Cl)c2)n1', 'no (0)'),
  ('CCOC(=O)c1c(=O)n(O)c2ccc(OC)cc2[n+]1[O-]', 'no (0)'),
  ('O=C(NCc1ccccc1)C(c1cccnc1)N(C(=O)c1ccccn1)c1ccccc1F (stereo not given)', 'no (0)'),
  ('CCOC(=O)[C@]12CCCC=C1N(CCC1=CCCCC1)C(=O)[C@H](CC(=O)NCC13CC4CC(CC(C4)C1)C3)C2', 'no (0)'),
  ('CCc1cccc(NC(=O)CCc2c(C)nn(-c3ccc(N4CCOCC4)nn3)c2C)c1', 'no (0)'),
  ('O=C(NNC(=O)c1ccccc1Cl)c1cccnc1', 'yes (1)'),
  ('C=C1C[C@@]23CCC4[C@@](C)(CCC[C@@]4(C)C(=O)O)C2CC[C@]1(O)C3 (stereo not given in full)', 'no (0)'),
  ('Cc1ccccc1OCC1Cc2c(nc(N)c(C#N)c2N)O1 (stereo not given)', 'no (0)'),
  ('CCOC(=O)C1CCN(Cc2ccc3ccccc3c2)CC1', 'no (0)'),
  ('CC(C)(C)OC(=O)N1CCN(C(=O)c2[nH]cnc2C(=O)NCc2ccccc2)CC1', 'no (0)'),
  ('c1cc(CNc2ccc3c(c2)OCO3)ccn1', 'no (0)'),
  ('O=C(Nc1cccc(C(F)(F)F)c1)C1Cc2c(-c3cccc(F)c3)ccnc2O1 (stereo not given)', 'no (0)'),
  ('CCOC(=O)c1c2ccc(OCC(=O)NN)cc2n2ccccc12', 'no (0)'),
  ('CCOC(=O)C1=C(C)NC2=C(C(=O)CCC2)C1c1cn(Cc2ccc(Cl)cc2Cl)nc1-c1ccccc1 (stereo not given)', 'no (0)'),
  ('Cn1c(=O)c2[nH]c(NCCCN3CCOCC3)nc2n(C)c1=O', 'no (0)'),
  ('Cc1cnc(C(=O)OCC(=O)Nc2sc3c(c2C#N)CCC3)cn1', 'no (0)'),
  ('COc1ccc(Cl)cc1S(=O)(=O)N1CCN(CC(=O)C(C)(C)C)CC1', 'no (0)'),
  ('CCCN=C1N/C(=C\c2ccco2)C(=O)N1c1ccccc1', 'no (0)'),
  ('Cn1c(=O)c2c(ncn2CC(COCc2ccccc2)OCc2ccccc2)n(C)c1=O (stereo not given)', 'no (0)'),
  ('Cc1ccc(Cn2nnnc2CN2CCC(n3nnc4ccccc43)CC2)cc1', 'no (0)'),
  ('COC(=O)C1=C(c2ccc(F)cc2OCc2ccccc2)C[C@@H]2CC[C@H]1N2C(=O)NCCNC(C)=O', 'yes (1)'),
  ('COc1ccc(S(=O)(=O)N2CCCCC2)cc1NC(=O)c1c(F)cccc1Cl', 'no (0)'),
  ('Cc1cnccc1CNC(=O)CC1C(=O)NCCN1CC(C)(C)C (stereo not given)', 'no (0)'),
  ('CCc1ccc(NS(=O)(=O)c2c(C(=O)N3CCCCCC3)c(C)n(C)c2C)cc1', 'no (0)'),
  ('O=C(CSC1CN(C(c2ccccc2)c2ccccc2)C1)N/N=C/c1ccccc1', 'yes (1)'),
  ('CCOC(=O)N1CCN(C(=O)c2cc(COc3ccc(OC)cc3Cl)on2)CC1', 'no (0)'),
  ('O=S(=O)(c1cc(Cl)cc(Cl)c1)N1Cc2cc(-c3ccccc3)ccc2-n2nncc2C1', 'no (0)'),
  ('O=C(CCC(=O)Nc1ccccc1Cl)NN=C1CCCC1', 'no (0)'),
  ('COc1cccc(-c2ccc3c(c2)N(Cc2ccccc2OC)C(=O)C(C)S3)c1 (stereo not given)', 'no (0)');
